Listed next: entries and their corresponding pIC50.
- targetSystem: DNA gyrase subunit A/DNA gyrase subunit B (Mycobacterium tuberculosis (strain ATCC 25618 / H37Rv), UniProt P9WG45+P9WG47)
- Sequence (P9WG45 whole entry): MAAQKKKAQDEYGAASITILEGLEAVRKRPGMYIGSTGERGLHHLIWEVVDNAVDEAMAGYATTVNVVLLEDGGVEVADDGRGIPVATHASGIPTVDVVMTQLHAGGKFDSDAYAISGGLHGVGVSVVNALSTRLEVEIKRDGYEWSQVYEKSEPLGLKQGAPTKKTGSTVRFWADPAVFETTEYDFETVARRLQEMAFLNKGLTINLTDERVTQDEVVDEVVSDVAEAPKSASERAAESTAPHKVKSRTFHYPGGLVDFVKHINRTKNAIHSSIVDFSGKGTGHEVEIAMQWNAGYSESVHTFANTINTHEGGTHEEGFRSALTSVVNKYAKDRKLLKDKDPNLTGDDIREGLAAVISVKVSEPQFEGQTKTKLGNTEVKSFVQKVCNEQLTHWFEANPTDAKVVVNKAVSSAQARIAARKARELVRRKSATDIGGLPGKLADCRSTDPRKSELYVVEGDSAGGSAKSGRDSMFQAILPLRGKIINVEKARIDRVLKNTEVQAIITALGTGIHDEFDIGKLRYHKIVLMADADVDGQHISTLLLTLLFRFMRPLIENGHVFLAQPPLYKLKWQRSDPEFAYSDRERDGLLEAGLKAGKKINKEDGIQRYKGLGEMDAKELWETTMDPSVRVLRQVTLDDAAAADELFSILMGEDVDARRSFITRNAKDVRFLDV
- Sequence (P9WG47 whole entry): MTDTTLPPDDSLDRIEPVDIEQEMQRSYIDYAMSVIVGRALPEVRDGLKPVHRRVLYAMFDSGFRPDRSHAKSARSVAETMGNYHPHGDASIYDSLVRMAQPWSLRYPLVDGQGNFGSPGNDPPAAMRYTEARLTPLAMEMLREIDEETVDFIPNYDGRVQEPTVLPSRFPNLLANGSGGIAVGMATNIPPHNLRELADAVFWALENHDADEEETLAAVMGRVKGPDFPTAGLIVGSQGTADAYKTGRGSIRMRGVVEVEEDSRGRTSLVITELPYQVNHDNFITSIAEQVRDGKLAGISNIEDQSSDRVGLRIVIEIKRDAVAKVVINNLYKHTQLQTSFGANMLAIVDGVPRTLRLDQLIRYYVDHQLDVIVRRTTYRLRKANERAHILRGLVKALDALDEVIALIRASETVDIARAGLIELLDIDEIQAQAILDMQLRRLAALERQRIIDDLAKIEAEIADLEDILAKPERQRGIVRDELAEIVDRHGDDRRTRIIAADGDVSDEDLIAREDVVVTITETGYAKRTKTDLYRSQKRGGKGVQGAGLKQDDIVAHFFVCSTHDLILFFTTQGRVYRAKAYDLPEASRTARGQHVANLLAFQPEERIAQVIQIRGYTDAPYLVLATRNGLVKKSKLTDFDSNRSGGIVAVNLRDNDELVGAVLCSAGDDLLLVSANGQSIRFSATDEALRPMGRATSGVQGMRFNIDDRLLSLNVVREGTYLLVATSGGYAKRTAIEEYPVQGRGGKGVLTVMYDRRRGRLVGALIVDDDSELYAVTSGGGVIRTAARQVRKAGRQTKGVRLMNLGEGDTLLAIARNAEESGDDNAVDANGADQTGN
- assayProtocol: Inhibition of Mycobacterium tuberculosis DNA gyrase supercoiling activity using relaxed pBR322 substrate incubated for 30 mins by ethidium bromide staining method
pIC50: −log10 of the molar value.
observedProperty: pIC50

>  <testSmiles>
CCOC(=O)c1cc2cc(N3CCN(C(=O)CCc4ccc(F)cc4)CC3)ccc2o1

>  <observedProperty>
pIC50

>  <measured>
5.51

$$$$
>  <testSmiles>
CCOC(=O)c1cc2cc(N3CCN(C(=O)Cc4c(F)cc(F)cc4F)CC3)ccc2o1

>  <observedProperty>
pIC50

>  <measured>
5.21

$$$$
>  <testSmiles>
CCOC(=O)c1cc2cc(N3CCN(C(=O)c4cccnc4Cl)CC3)ccc2o1

>  <observedProperty>
pIC50

>  <measured>
5.82

$$$$
>  <testSmiles>
CCOC(=O)c1cc2cc(N3CCN(C(=O)c4nccnc4Cl)CC3)ccc2o1

>  <observedProperty>
pIC50

>  <measured>
5.51

$$$$
>  <testSmiles>
CCOC(=O)c1cc2cc(N3CCN(C(=O)c4cccc5ccccc45)CC3)ccc2o1

>  <observedProperty>
pIC50

>  <measured>
5.44

$$$$

---

- targetSystem: DNA gyrase subunit A/DNA gyrase subunit B (Mycobacterium tuberculosis (strain ATCC 25618 / H37Rv), UniProt P9WG45+P9WG47)
- assayProtocol: Inhibition of Mycobacterium tuberculosis DNA gyrase supercoiling activity using relaxed pBR322 substrate incubated for 30 mins by ethidium bromide staining method
Recorded IC50 determines the group label, using small value (below 3 µM), mid value (3 µM to below 20 µM), large value (20 µM or more)

>  <molecule>
CCOC(=O)c1cc2cc(N3CCN(C(=O)Cc4ccccc4)CC3)ccc2o1

>  <categoryLabel>
mid value

$$$$
>  <molecule>
CCOC(=O)c1cc2cc(N3CCN(C(=O)Cc4ccc(Cl)cc4)CC3)ccc2o1

>  <categoryLabel>
mid value

$$$$
>  <molecule>
CCOC(=O)c1cc2cc(N3CCN(C(=O)CC4CCCCC4)CC3)ccc2o1

>  <categoryLabel>
large value

$$$$
>  <molecule>
CCOC(=O)c1cc2cc(N3CCN(C(=O)c4c(F)cc(OC)cc4F)CC3)ccc2o1

>  <categoryLabel>
mid value

$$$$
>  <molecule>
CCOC(=O)c1cc2cc(N3CCN(C(=O)c4ncccc4C(F)(F)F)CC3)ccc2o1

>  <categoryLabel>
mid value

$$$$
>  <molecule>
CCOC(=O)c1cc2cc(N3CCN(C(=O)Cc4ccc(F)cc4)CC3)ccc2o1

>  <categoryLabel>
large value

$$$$
>  <molecule>
CCOC(=O)c1cc2cc(N3CCN(C(=O)CC(C)C)CC3)ccc2o1

>  <categoryLabel>
large value

$$$$
>  <molecule>
CCOC(=O)c1cc2cc(N3CCN(C(=O)c4ccccc4C(F)(F)F)CC3)ccc2o1

>  <categoryLabel>
large value

$$$$
>  <molecule>
CCOC(=O)c1cc2cc(N3CCN(C(=O)Cc4ccc(Br)cc4)CC3)ccc2o1

>  <categoryLabel>
mid value

$$$$
>  <molecule>
CCOC(=O)c1cc2cc(N3CCN(C(=O)c4ccc(C5CCOCC5)cc4)CC3)ccc2o1

>  <categoryLabel>
small value

$$$$
>  <molecule>
CCOC(=O)c1cc2cc(N3CCN(C(=O)C4Cc5ccccc5N4)CC3)ccc2o1 (stereo not given)

>  <categoryLabel>
small value

$$$$
>  <molecule>
CCOC(=O)c1cc2cc(N3CCN(C(=O)Cc4ccc(OC)cc4)CC3)ccc2o1

>  <categoryLabel>
mid value

$$$$
>  <molecule>
CCOC(=O)c1cc2cc(N3CCN(C(=O)C4CCN(C(=O)OC(C)(C)C)CC4)CC3)ccc2o1

>  <categoryLabel>
small value

$$$$
>  <molecule>
CCOC(=O)c1cc2cc(N3CCN(C(=O)COc4ccccc4)CC3)ccc2o1

>  <categoryLabel>
small value

$$$$
>  <molecule>
CCOC(=O)c1cc2cc(N3CCN(C(=O)c4c(F)cccc4F)CC3)ccc2o1

>  <categoryLabel>
small value

$$$$
>  <molecule>
CCOC(=O)c1cc2cc(N3CCN(C(=O)c4ccco4)CC3)ccc2o1

>  <categoryLabel>
large value

$$$$
>  <molecule>
CCOC(=O)c1cc2cc(N3CCN(C(=O)c4c(Cl)cccc4Cl)CC3)ccc2o1

>  <categoryLabel>
mid value

$$$$
>  <molecule>
CCOC(=O)c1cc2cc(N3CCN(C(=O)c4ccccc4OC(F)(F)F)CC3)ccc2o1

>  <categoryLabel>
mid value

$$$$
>  <molecule>
CCOC(=O)c1cc2cc(N3CCN(C(=O)c4ccc(C(F)(F)F)cc4)CC3)ccc2o1

>  <categoryLabel>
large value

$$$$
>  <molecule>
CCOC(=O)c1cc2cc(N3CCN(C(=O)c4cccc(OC)c4)CC3)ccc2o1

>  <categoryLabel>
small value

$$$$

---

- targetSystem: DNA gyrase subunit B (Mycobacterium smegmatis, UniProt P0C559)
- Sequence (P0C559 whole entry): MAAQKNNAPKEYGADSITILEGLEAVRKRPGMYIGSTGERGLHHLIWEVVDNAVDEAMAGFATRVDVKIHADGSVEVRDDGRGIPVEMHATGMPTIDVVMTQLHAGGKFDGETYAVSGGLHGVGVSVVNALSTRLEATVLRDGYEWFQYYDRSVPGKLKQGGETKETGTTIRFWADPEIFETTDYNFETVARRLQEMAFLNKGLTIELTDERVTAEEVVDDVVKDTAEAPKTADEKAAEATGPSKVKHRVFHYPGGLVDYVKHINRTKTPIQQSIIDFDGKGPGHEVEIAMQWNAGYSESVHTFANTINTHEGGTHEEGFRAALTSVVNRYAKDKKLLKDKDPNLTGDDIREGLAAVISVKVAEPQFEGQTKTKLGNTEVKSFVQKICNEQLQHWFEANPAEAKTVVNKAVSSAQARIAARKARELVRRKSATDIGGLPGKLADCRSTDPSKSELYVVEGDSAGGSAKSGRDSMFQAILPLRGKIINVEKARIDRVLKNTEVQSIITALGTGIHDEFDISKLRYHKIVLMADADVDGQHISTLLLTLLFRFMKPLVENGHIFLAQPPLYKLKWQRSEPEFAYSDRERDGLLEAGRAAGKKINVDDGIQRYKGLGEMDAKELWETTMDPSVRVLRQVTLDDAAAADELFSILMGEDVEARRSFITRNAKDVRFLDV
- assayProtocol: Inhibition of 6-His-tagged Mycobacterium smegmatis GyrB expressed in Escherichia coli BL21 (DE3) pLysS cells incubated for 100 mins in presence of ATP by malachite green dye based ATP assay
pIC50: −log10 of the molar value.

>  <compound>
CCOC(=O)c1cc2cc(N3CCN(C(=O)Cc4ccc(OC)cc4)CC3)ccc2o1

>  <inequalitySign>
=

>  <pIC50>
4.99

$$$$
>  <compound>
CCOC(=O)c1cc2cc(N3CCN(C(=O)c4ccccc4OC(F)(F)F)CC3)ccc2o1

>  <inequalitySign>
=

>  <pIC50>
4.54

$$$$
>  <compound>
CCOC(=O)c1cc2cc(N3CCN(C(=O)Cc4c(F)cc(F)cc4F)CC3)ccc2o1

>  <inequalitySign>
=

>  <pIC50>
4.91

$$$$
>  <compound>
CCOC(=O)c1cc2cc(N3CCN(C(=O)Cc4ccccc4)CC3)ccc2o1

>  <inequalitySign>
=

>  <pIC50>
5.04

$$$$
>  <compound>
CCOC(=O)c1cc2cc(N3CCN(C(=O)Cc4ccc(F)cc4)CC3)ccc2o1

>  <inequalitySign>
=

>  <pIC50>
4.42

$$$$
>  <compound>
CCOC(=O)c1cc2cc(N3CCN(C(=O)c4c(F)cc(OC)cc4F)CC3)ccc2o1

>  <inequalitySign>
=

>  <pIC50>
4.62

$$$$
>  <compound>
CCOC(=O)c1cc2cc(N3CCN(C(=O)c4ccc(C5CCOCC5)cc4)CC3)ccc2o1

>  <inequalitySign>
=

>  <pIC50>
5.17

$$$$
>  <compound>
CCOC(=O)c1cc2cc(N3CCN(C(=O)COc4ccccc4)CC3)ccc2o1

>  <inequalitySign>
=

>  <pIC50>
5.40

$$$$
>  <compound>
COc1c(N2C[C@@H]3CCCN[C@@H]3C2)c(F)cc2c(=O)c(C(=O)O)cn(C3CC3)c12

>  <inequalitySign>
<

>  <pIC50>
4.30

$$$$
>  <compound>
CCOC(=O)c1cc2cc(N3CCN(C(=O)Cc4ccc(Cl)cc4)CC3)ccc2o1

>  <inequalitySign>
=

>  <pIC50>
4.84

$$$$
>  <compound>
CCOC(=O)c1cc2cc(N3CCN(C(=O)Cc4ccc(Br)cc4)CC3)ccc2o1

>  <inequalitySign>
=

>  <pIC50>
4.78

$$$$
>  <compound>
CCOC(=O)c1cc2cc(N3CCN(C(=O)C4Cc5ccccc5N4)CC3)ccc2o1 (stereo unspecified)

>  <inequalitySign>
=

>  <pIC50>
5.41

$$$$
>  <compound>
CCOC(=O)c1cc2cc(N3CCN(C(=O)CCc4ccc(F)cc4)CC3)ccc2o1

>  <inequalitySign>
=

>  <pIC50>
5.21

$$$$
>  <compound>
CCOC(=O)c1cc2cc(N3CCN(C(=O)c4cccnc4Cl)CC3)ccc2o1

>  <inequalitySign>
=

>  <pIC50>
5.10

$$$$
>  <compound>
CCOC(=O)c1cc2cc(N3CCN(C(=O)c4cccc(OC)c4)CC3)ccc2o1

>  <inequalitySign>
=

>  <pIC50>
5.30

$$$$
>  <compound>
CCOC(=O)c1cc2cc(N3CCN(C(=O)c4c(Cl)cccc4Cl)CC3)ccc2o1

>  <inequalitySign>
=

>  <pIC50>
4.97

$$$$
>  <compound>
CCOC(=O)c1cc2cc(N3CCN(C(=O)c4c(F)cccc4F)CC3)ccc2o1

>  <inequalitySign>
=

>  <pIC50>
5.21

$$$$
>  <compound>
CCOC(=O)c1cc2cc(N3CCN(C(=O)c4cccc5ccccc45)CC3)ccc2o1

>  <inequalitySign>
=

>  <pIC50>
5.04

$$$$
>  <compound>
CCOC(=O)c1cc2cc(N3CCN(C(=O)c4ncccc4C(F)(F)F)CC3)ccc2o1

>  <inequalitySign>
=

>  <pIC50>
4.63

$$$$
>  <compound>
CCOC(=O)c1cc2cc(N3CCN(C(=O)CC(C)C)CC3)ccc2o1

>  <inequalitySign>
=

>  <pIC50>
4.39

$$$$
>  <compound>
CCOC(=O)c1cc2cc(N3CCN(C(=O)c4ccco4)CC3)ccc2o1

>  <inequalitySign>
=

>  <pIC50>
4.43

$$$$
>  <compound>
CCOC(=O)c1cc2cc(N3CCN(C(=O)c4ccccc4C(F)(F)F)CC3)ccc2o1

>  <inequalitySign>
=

>  <pIC50>
4.43

$$$$
>  <compound>
CCOC(=O)c1cc2cc(N3CCN(C(=O)CC4CCCCC4)CC3)ccc2o1

>  <inequalitySign>
=

>  <pIC50>
4.44

$$$$
>  <compound>
CCOC(=O)c1cc2cc(N3CCN(C(=O)c4nccnc4Cl)CC3)ccc2o1

>  <inequalitySign>
=

>  <pIC50>
4.90

$$$$
>  <compound>
CCOC(=O)c1cc2cc(N3CCN(C(=O)c4ccc(C(F)(F)F)cc4)CC3)ccc2o1

>  <inequalitySign>
=

>  <pIC50>
4.28

$$$$
>  <compound>
CCOC(=O)c1cc2cc(N3CCN(C(=O)C4CCN(C(=O)OC(C)(C)C)CC4)CC3)ccc2o1

>  <inequalitySign>
=

>  <pIC50>
5.49

$$$$
